Target: Prothrombin (Bos taurus, UniProt P00735)
Assay: Bovine thrombin concentration at which clotting time was prolonged 2x over the control.
Format: functional
Conditions: read-out: I50
Observed Property: IC50 (µM)

1. C=CCNC(=O)C(CCCN=C(N)N)NS(=O)(=O)c1cccc2c(N(C)C)cccc12 (centres undefined) ... 10
2. CN(C)c1cccc2c(S(=O)(=O)NC(CCCN=C(N)N)C(=O)N3CC4CCCC(C4)C3)cccc12 (centres undefined) ... 10
3. CC(C)CNC(=O)C(CCCNC(=N)N)NS(=O)(=O)c1cccc2c(N(C)C)cccc12 (centres undefined) ... 100
4. CN(C)c1cccc2c(S(=O)(=O)NC(CCCNC(=N)N)C(=O)N3CCc4ccccc43)cccc12 (centres undefined) ... 1
5. CCC1CCN(C(=O)C(CCCNC(=N)N)NS(=O)(=O)c2ccc3c(c2)CCCO3)CC1 (centres undefined) ... 15
6. CCCCN(C)C(=O)C(CCCNC(=N)N)NS(=O)(=O)c1ccc2ccccc2c1 (centres undefined) ... 50
7. CCC1CCN(C(=O)C(CCCN=C(N)N)NS(=O)(=O)c2ccc3cc(N(C)C)ccc3c2)CC1 (centres undefined) ... 0.3
8. CCCCCCCNC(=O)C(CCCNC(=N)N)NS(=O)(=O)c1cccc2c(N(C)C)cccc12 (centres undefined) ... 100
9. CCc1cc2cc(S(=O)(=O)NC(CCCN=C(N)N)C(=O)N3CCC(CC)CC3)ccc2oc1=O (centres undefined) ... 1

---

Molecular target: Prothrombin (Bos taurus, UniProt P00735)
Assay: Bovine thrombin concentration at which clotting time was prolonged 2x over the control.
Conditions: read-out: I50
pIC50: −log10 of the molar value.
Quick rule for you: pIC50 at 5 or higher means True, lower means False.

1. CCOCCNC(=O)C(CCCN=C(N)N)NS(=O)(=O)c1cccc2c(N(C)C)cccc12 (centres undefined) ... True
2. CC1CN(C(=O)C(CCCN=C(N)N)NS(=O)(=O)c2cccc3c(N(C)C)cccc23)CC(C)O1 (centres undefined) ... False
3. CN(C)c1cccc2c(S(=O)(=O)NC(CCCN=C(N)N)C(=O)N3CCCCCCC3)cccc12 (centres undefined) ... True
4. CCC1CCN(C(=O)C(CCCNC(=N)N)NS(=O)(=O)c2ccc3c(c2)oc2ccccc23)CC1 (centres undefined) ... True
5. N=C(N)NCCCC(NS(=O)(=O)c1ccc2ccccc2c1)C(=O)N1CCOCC1 (centres undefined) ... False
6. CCCCNC(=O)C(CCCN=C(N)N)NS(=O)(=O)c1cccc2c(N(C)C)cccc12 (centres undefined) ... True
7. COC1CCN(C(=O)C(CCCN=C(N)N)NS(=O)(=O)c2cccc3c(N(C)C)cccc23)CC1 (centres undefined) ... True
8. CCC1CCN(C(=O)C(CCCN=C(N)N)NS(=O)(=O)c2cc(OC)c3ccccc3c2)CC1 (centres undefined) ... True
9. COc1cccc2cccc(S(=O)(=O)NC(CCCN=C(N)N)C(=O)N3CCC(C)CC3)c12 (centres undefined) ... True
10. CCN(CC)C(=O)C(CCCN=C(N)N)NS(=O)(=O)c1cccc2c(N(C)C)cccc12 (centres undefined) ... False
11. CN(Cc1ccccc1)C(=O)C(CCCN=C(N)N)NS(=O)(=O)c1cccc2c(N(C)C)cccc12 (centres undefined) ... True
12. COc1ccc2ccc(S(=O)(=O)NC(CCCN=C(N)N)C(=O)N3CCC(C)CC3)cc2c1 (centres undefined) ... True
13. CCCCCCNC(=O)C(CCCN=C(N)N)NS(=O)(=O)c1cccc2c(N(C)C)cccc12 (centres undefined) ... False
14. CN(C)c1cccc2c(S(=O)(=O)NC(CCCN=C(N)N)C(=O)N3CCCCC3)cccc12 (centres undefined) ... True
15. CN(C)c1cccc2c(S(=O)(=O)NC(CCCNC(=N)N)C(=O)N3CCCc4ccccc43)cccc12 (centres undefined) ... False
16. CN(C)c1cccc2c(S(=O)(=O)NC(CCCNC(=N)N)C(=O)N3CCCCCC3)cccc12 (centres undefined) ... True
17. CC1CCCN(C(=O)C(CCCNC(=N)N)NS(=O)(=O)c2cccc3c(N(C)C)cccc23)C1 (centres undefined) ... True
18. CC(C)NC(=O)C(CCCN=C(N)N)NS(=O)(=O)c1cccc2c(N(C)C)cccc12 (centres undefined) ... False
